Molecular target: Voltage-gated inwardly rectifying potassium channel KCNH2 (Homo sapiens) (UniProt Q12809)
Sequence (Q12809 whole entry, looked up): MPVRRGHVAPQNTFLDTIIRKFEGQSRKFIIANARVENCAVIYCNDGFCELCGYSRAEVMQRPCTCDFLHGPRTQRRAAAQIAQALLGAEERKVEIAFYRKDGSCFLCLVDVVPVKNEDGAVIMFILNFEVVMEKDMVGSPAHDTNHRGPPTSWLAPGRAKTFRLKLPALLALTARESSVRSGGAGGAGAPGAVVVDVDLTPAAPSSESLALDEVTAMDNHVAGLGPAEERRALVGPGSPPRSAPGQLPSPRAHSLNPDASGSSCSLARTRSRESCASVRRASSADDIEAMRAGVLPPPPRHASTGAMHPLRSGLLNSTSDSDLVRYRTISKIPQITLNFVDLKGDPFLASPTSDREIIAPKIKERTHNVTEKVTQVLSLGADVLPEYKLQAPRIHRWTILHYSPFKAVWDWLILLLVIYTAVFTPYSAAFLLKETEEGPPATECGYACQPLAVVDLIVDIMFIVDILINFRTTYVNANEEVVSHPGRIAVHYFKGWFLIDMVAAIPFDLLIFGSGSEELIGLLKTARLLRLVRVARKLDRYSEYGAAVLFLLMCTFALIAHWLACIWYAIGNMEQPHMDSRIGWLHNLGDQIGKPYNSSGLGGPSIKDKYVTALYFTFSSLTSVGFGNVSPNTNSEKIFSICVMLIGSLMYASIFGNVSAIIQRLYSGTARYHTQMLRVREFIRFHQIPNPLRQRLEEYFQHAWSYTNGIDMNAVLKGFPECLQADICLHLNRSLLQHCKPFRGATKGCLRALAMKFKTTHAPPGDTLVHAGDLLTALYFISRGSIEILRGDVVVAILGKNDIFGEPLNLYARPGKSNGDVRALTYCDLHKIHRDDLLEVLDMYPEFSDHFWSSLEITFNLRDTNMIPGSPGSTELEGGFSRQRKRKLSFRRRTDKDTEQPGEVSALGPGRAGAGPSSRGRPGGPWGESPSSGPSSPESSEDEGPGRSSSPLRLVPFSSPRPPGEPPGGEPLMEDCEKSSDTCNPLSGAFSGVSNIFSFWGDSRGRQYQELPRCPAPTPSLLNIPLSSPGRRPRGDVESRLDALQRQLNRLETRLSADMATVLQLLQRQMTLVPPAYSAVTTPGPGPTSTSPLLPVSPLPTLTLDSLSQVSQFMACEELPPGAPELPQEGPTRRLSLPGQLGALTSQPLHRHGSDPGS
Experiment: Human Ether-a-go-go-Related Gene (hERG) channel small molecule antagonists: fluorescence cell-based qHTS assay (AID 1671200); further: nearly all actives have a fitted effect of over 50% in size
Details: hERG-U2OS cells, FluxOR thallium flux fluorescence; series mostly up to 76.8 µM
From the text: National Center for Advancing Translational Sciences [NCATS] U.S. Environmental Protection Agency [EPA] National Institutes of Environmental Health Sciences [NIEHS] National Toxicology Program [NTP] U.S. Food and Drug Administration [FDA] Mutations in the hERG channel cause Long QT (LQT) syndrome. LQT syndrome is a cardiac disorder which can cause ventricle arrhythmia and sudden death. Additionally, compounds which block the hERG channel can cause acquired LQT syndrome. […]
Inconclusive results are not listed. Activity calls are given as the source filed them. The call rests on the fitted dose curve; in most records, active means well fitted inhibition curve with a large enough effect in the repeat runs; inconclusive means weak or mixed curves; inactive means flat fitted curve, though single readings scatter.
Labels: active, inactive

{"Molecule": "Clc1cccc(C(Cl)(Cl)Cl)n1", "Assigned category": "inactive"}
{"Molecule": "CC(C)Nc1ccc(Nc2ccccc2)cc1", "Assigned category": "active"}
{"Molecule": "COP(=S)(OC)Oc1ccc(Sc2ccc(OP(=S)(OC)OC)cc2)cc1", "Assigned category": "inactive"}
{"Molecule": "Nc1ccc([N+](=O)[O-])cc1N", "Assigned category": "inactive"}
{"Molecule": "ClC(Cl)(Cl)Br", "Assigned category": "inactive"}
{"Molecule": "Brc1ccc(Br)cc1", "Assigned category": "inactive"}
{"Molecule": "COP(=S)(OC)SCn1nnc2ccccc2c1=O", "Assigned category": "inactive"}
{"Molecule": "CCCCC(C#N)(Cn1cncn1)c1ccc(Cl)cc1 (configuration not stated)", "Assigned category": "inactive"}
{"Molecule": "Nc1ncn[nH]1", "Assigned category": "inactive"}
{"Molecule": "CNC(=S)S", "Assigned category": "inactive"}
{"Molecule": "CCC1(c2ccc(N)cc2)CCC(=O)NC1=O (configuration not stated)", "Assigned category": "inactive"}
{"Molecule": "CNC(=O)Oc1cccc2c1OC(C)(C)C2", "Assigned category": "inactive"}
{"Molecule": "CCC(=O)Nc1ccc(Cl)c(Cl)c1", "Assigned category": "inactive"}
{"Molecule": "Cn1c(-c2ccccc2)cc(-c2ccccc2)[n+]1C", "Assigned category": "active"}
{"Molecule": "ClCc1ccccn1", "Assigned category": "inactive"}
{"Molecule": "CC(C)Nc1nc(Cl)nc(NC(C)C)n1", "Assigned category": "inactive"}
{"Molecule": "CC(C)=CC1C(C(=O)OCN2C(=O)C3=C(CCCC3)C2=O)C1(C)C (configuration not stated)", "Assigned category": "active"}

====

experiment: qHTS assay to identify small molecule antagonists of the estrogen related receptor signaling pathway with the pleiotropic PPARgamma coactivator (PGC) from Tox21 10K library - cell viability counter screen (AID 1224840); details: PGC/ERR reporter cells viability, CellTiter-Fluor, 17.5 h; series mostly up to 92.4 µM; further: nearly all actives have a fitted effect of over 40% in size
Inconclusive results are not listed. The source made the active and inactive calls. Calls come from the whole dose curve; as a rule, active = well fitted cell-killing curve with a large enough effect in the repeat runs (not every such curve was filed as active); inconclusive = weak or mixed curves, or effect the other way; inactive = no such curve, though single readings can be large or run the other way.
Labels: 1 (active), 0 (inactive)

{"Molecule": "Nc1ccc([N+](=O)[O-])cc1N", "Assigned category": 1}
{"Molecule": "CCCCOC(=O)COC(=O)c1ccccc1C(=O)OCCCC", "Assigned category": 0}
{"Molecule": "CN(C)c1nc(=O)n(C2CCCCC2)c(=O)n1C", "Assigned category": 0}
{"Molecule": "COP(=O)(NC(C)=O)SC (configuration not stated)", "Assigned category": 0}
{"Molecule": "CCC(=O)Nc1ccc(Cl)c(Cl)c1", "Assigned category": 0}
{"Molecule": "c1ccc(C2CO2)cc1 (configuration not stated)", "Assigned category": 0}
{"Molecule": "O=C1CCCO1", "Assigned category": 0}

====

target: Nuclear receptor subfamily 1 group I member 2 (Homo sapiens) (UniProt O75469); test: Human pregnane X receptor (PXR) small molecule agonists, qHTS assay (AID 1346982); conditions: PXR-Luc HepG2, CYP3A4 luciferase reporter, 24 h; series mostly up to 92.4 µM; further: nearly all actives have a fitted effect of over 35% in size
Sequence (O75469 whole entry, looked up): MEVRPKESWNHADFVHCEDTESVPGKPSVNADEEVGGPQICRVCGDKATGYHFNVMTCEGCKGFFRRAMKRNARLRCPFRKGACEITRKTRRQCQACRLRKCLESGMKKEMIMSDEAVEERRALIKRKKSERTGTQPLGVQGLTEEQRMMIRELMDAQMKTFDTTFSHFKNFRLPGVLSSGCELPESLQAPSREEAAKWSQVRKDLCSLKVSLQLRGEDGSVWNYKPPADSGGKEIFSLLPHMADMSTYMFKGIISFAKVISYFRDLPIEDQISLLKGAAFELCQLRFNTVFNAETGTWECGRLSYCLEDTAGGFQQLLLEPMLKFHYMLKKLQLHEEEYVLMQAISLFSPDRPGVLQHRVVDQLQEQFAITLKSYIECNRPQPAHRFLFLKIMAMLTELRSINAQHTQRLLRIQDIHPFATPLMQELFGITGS
Records with an inconclusive call do not appear. Calls of active or inactive are those of the source. The call rests on the fitted dose curve; in most records, active means well fitted activation curve with a large enough effect in the repeat runs; inconclusive means weak or mixed curves; inactive means no such curve, though single readings can be large or run the other way.
Labels: label 1 for active, label 0 for inactive

{"Test smiles": "ClC(Cl)=C(Cl)C(Cl)=C(Cl)Cl", "Measured target": "Nuclear receptor subfamily 1 group I member 2 (Homo sapiens) (UniProt O75469)", "Assigned category": "label 0"}
{"Test smiles": "O=[N+]([O-])/N=C1\\NCCN1Cc1ccc(Cl)nc1", "Measured target": "Nuclear receptor subfamily 1 group I member 2 (Homo sapiens) (UniProt O75469)", "Assigned category": "label 0"}
{"Test smiles": "Cn1c(-c2ccccc2)cc(-c2ccccc2)[n+]1C", "Measured target": "Nuclear receptor subfamily 1 group I member 2 (Homo sapiens) (UniProt O75469)", "Assigned category": "label 0"}
{"Test smiles": "Nc1ccc([N+](=O)[O-])cc1N", "Measured target": "Nuclear receptor subfamily 1 group I member 2 (Homo sapiens) (UniProt O75469)", "Assigned category": "label 1"}
{"Test smiles": "CCOP(=O)(OCC)OCC", "Measured target": "Nuclear receptor subfamily 1 group I member 2 (Homo sapiens) (UniProt O75469)", "Assigned category": "label 0"}
{"Test smiles": "CCOP(=S)(OCC)OP(=S)(OCC)OCC", "Measured target": "Nuclear receptor subfamily 1 group I member 2 (Homo sapiens) (UniProt O75469)", "Assigned category": "label 0"}
{"Test smiles": "C[N+](C)(C)C", "Measured target": "Nuclear receptor subfamily 1 group I member 2 (Homo sapiens) (UniProt O75469)", "Assigned category": "label 0"}
{"Test smiles": "CN(C)P(=O)(N(C)C)N(C)C", "Measured target": "Nuclear receptor subfamily 1 group I member 2 (Homo sapiens) (UniProt O75469)", "Assigned category": "label 0"}
{"Test smiles": "ClCC(Cl)CCl", "Measured target": "Nuclear receptor subfamily 1 group I member 2 (Homo sapiens) (UniProt O75469)", "Assigned category": "label 0"}
{"Test smiles": "COc1ccc(C=O)cc1OC", "Measured target": "Nuclear receptor subfamily 1 group I member 2 (Homo sapiens) (UniProt O75469)", "Assigned category": "label 0"}
{"Test smiles": "Clc1ccc(C(Cl)(Cl)Cl)cc1", "Measured target": "Nuclear receptor subfamily 1 group I member 2 (Homo sapiens) (UniProt O75469)", "Assigned category": "label 0"}
{"Test smiles": "Nc1ncn[nH]1", "Measured target": "Nuclear receptor subfamily 1 group I member 2 (Homo sapiens) (UniProt O75469)", "Assigned category": "label 0"}
{"Test smiles": "CC(C)(C#N)N=NC(C)(C)C#N", "Measured target": "Nuclear receptor subfamily 1 group I member 2 (Homo sapiens) (UniProt O75469)", "Assigned category": "label 0"}
{"Test smiles": "C[C@]12CC[C@H]3[C@@H](CCC4=CC(=O)CC[C@@H]43)[C@@H]1CC[C@@H]2O", "Measured target": "Nuclear receptor subfamily 1 group I member 2 (Homo sapiens) (UniProt O75469)", "Assigned category": "label 0"}
{"Test smiles": "COP(=S)(OC)SCn1nnc2ccccc2c1=O", "Measured target": "Nuclear receptor subfamily 1 group I member 2 (Homo sapiens) (UniProt O75469)", "Assigned category": "label 1"}
{"Test smiles": "S=c1[nH]c2ccccc2[nH]1", "Measured target": "Nuclear receptor subfamily 1 group I member 2 (Homo sapiens) (UniProt O75469)", "Assigned category": "label 1"}
{"Test smiles": "CCNc1nc(Cl)nc(NC(C)(C)C#N)n1", "Measured target": "Nuclear receptor subfamily 1 group I member 2 (Homo sapiens) (UniProt O75469)", "Assigned category": "label 1"}
{"Test smiles": "N#Cc1cccnc1", "Measured target": "Nuclear receptor subfamily 1 group I member 2 (Homo sapiens) (UniProt O75469)", "Assigned category": "label 0"}

====

test: A CellTox Green Cytotoxicity Assay to monitor cytotoxicity in HepG2 cells - 24 hour (AID 1224878); details: CellTox Green fluorescence; series mostly up to 76.8 µM; further: nearly all actives have a fitted effect of over 45% in size
Results filed as inconclusive are left out. Calls of active or inactive are those of the source. The call rests on the fitted dose curve; in most records, active means well fitted activation curve with a large enough effect in the repeat runs; inconclusive means weak or mixed curves; inactive means flat fitted curve, though single readings scatter.
Labels: true (1) for active, false (0) for inactive

{"Compound": "c1ccc2c(c1)Nc1ccccc1S2", "Assigned category": "false (0)"}
{"Compound": "Cn1c(-c2ccccc2)cc(-c2ccccc2)[n+]1C", "Assigned category": "false (0)"}
{"Compound": "O=C1Nc2ccc(Cl)cc2C(c2ccccc2)=NC1O (stereo not given)", "Assigned category": "false (0)"}
{"Compound": "CS(=O)(=O)NC(=O)c1cc(Oc2ccc(C(F)(F)F)cc2Cl)ccc1[N+](=O)[O-]", "Assigned category": "false (0)"}
{"Compound": "CC(C)Nc1nc(Cl)nc(NC(C)C)n1", "Assigned category": "false (0)"}
{"Compound": "NN=C(N)N", "Assigned category": "false (0)"}
{"Compound": "CC(C)Nc1ccc(Nc2ccccc2)cc1", "Assigned category": "true (1)"}
{"Compound": "C[N+](C)(C)CC(=O)[O-]", "Assigned category": "false (0)"}
{"Compound": "CCC(=O)Nc1ccc(Cl)c(Cl)c1", "Assigned category": "false (0)"}
{"Compound": "Brc1ccc(Br)cc1", "Assigned category": "false (0)"}
{"Compound": "CCCCC(C#N)(Cn1cncn1)c1ccc(Cl)cc1 (stereo not given)", "Assigned category": "false (0)"}
{"Compound": "O=NN(c1ccccc1)c1ccccc1", "Assigned category": "false (0)"}
{"Compound": "O=[N+]([O-])/N=C1\\NCCN1Cc1ccc(Cl)nc1", "Assigned category": "false (0)"}
{"Compound": "CNC(=O)Oc1cccc2c1OC(C)(C)C2", "Assigned category": "false (0)"}
{"Compound": "CCCCOC(=O)COC(=O)c1ccccc1C(=O)OCCCC", "Assigned category": "false (0)"}
{"Compound": "O=C1CCCO1", "Assigned category": "false (0)"}
{"Compound": "N#Cc1cccnc1", "Assigned category": "false (0)"}
{"Compound": "Clc1ccc(C(Cl)(Cl)Cl)cc1", "Assigned category": "false (0)"}
{"Compound": "CCOP(=S)(OCC)SCn1c(=O)oc2cc(Cl)ccc21", "Assigned category": "false (0)"}
{"Compound": "O=NN1CCOCC1", "Assigned category": "false (0)"}
